Source listed as paper PMC8149590.

Test system: rlac1338
Construct: gene lac1338; 1,338 bp gene (about 445 residues), codon-optimised, in pET-32a(+), E. coli BL21(DE3); His-tag fusion (18 kD vector tag), ~68 kD by SDS-PAGE
assayMethodText: initial rates by OD405, Lineweaver-Burk
Assay type: biochemical, uncultured bacterium
conditionLabel: mutant lac2-9; optimal pH 6.5 and 60°C; ± sign lost in table text; printed base change T698A falls in codon 233, not 232

{"compound": "Oc1ccccc1O [Catecho]", "testedTarget": "rlac1338", "Km": "570 µM"}
{"compound": "CCn1c(=NN=c2sc3cc(S(=O)(=O)O)ccc3n2CC)sc2cc(S(=O)(=O)O)ccc21 [ABTS]", "testedTarget": "rlac1338", "Km": "76 µM"}
{"compound": "COc1ccccc1O [Guaiacol]", "testedTarget": "rlac1338", "Km": "4300 µM"}
{"compound": "COc1cccc(OC)c1O [2,6-DMP]", "testedTarget": "rlac1338", "Km": "560 µM"}
{"compound": "Oc1cccc2ccccc12 [1-naphthol]", "testedTarget": "rlac1338", "Km": "6040 µM"}

----------
Test system: rlac1338
Construct: gene lac1338; 1,338 bp gene (about 445 residues), codon-optimised, in pET-32a(+), E. coli BL21(DE3); His-tag fusion (18 kD vector tag), ~68 kD by SDS-PAGE
assayMethodText: initial rates by OD405, Lineweaver-Burk
Format: biochemical, uncultured bacterium
conditionLabel: optimal pH 6.0 and 55°C; ± sign lost in table text

{"smi": "Oc1cccc2ccccc12", "unitsLabel": "µM", "Km": 5600}
{"smi": "Oc1ccccc1O", "unitsLabel": "µM", "Km": 507}
{"smi": "CCn1c(=NN=c2sc3cc(S(=O)(=O)O)ccc3n2CC)sc2cc(S(=O)(=O)O)ccc21", "unitsLabel": "µM", "Km": 210}
{"smi": "COc1cccc(OC)c1O", "unitsLabel": "µM", "Km": 654}
{"smi": "COc1ccccc1O", "unitsLabel": "µM", "Km": 4900}
